binders and their reported Kd
biological target: FcRn/β2m heterodimers (SPR analyte) (UniProt P55899 24-365; P61769 21-119); experiment: SPR; pH 7.4; IgG captured by gp120
Sequence (P55899 24-365, chain 1 of 2): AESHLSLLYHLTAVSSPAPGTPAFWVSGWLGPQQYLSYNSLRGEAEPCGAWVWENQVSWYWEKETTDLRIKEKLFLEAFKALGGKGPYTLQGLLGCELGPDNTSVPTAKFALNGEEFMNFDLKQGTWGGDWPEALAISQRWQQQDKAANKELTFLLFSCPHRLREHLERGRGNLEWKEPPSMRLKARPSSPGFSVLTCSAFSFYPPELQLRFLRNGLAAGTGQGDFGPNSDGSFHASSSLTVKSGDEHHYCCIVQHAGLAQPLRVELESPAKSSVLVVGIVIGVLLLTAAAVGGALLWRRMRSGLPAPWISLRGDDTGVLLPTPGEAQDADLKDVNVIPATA
Sequence (P61769 21-119, chain 2 of 2): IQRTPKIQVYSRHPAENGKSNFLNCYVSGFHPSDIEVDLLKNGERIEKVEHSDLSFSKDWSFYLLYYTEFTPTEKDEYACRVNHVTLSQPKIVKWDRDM
State just the number; it will be interpreted in µM.

VRC07-523LS.v1 (antibody) chain 1: QVRLSQSGGQMKKPGDSMRISCRASGYEFINCPINWIRLAPGKRPEWMGWMKPRFGAVSYARQLQGRVTMTRQLSQDPDDPDWGTAFLELRSLTSDDTAVYFCTRGKYCTARDYYNWDFEHWGQGTPVTVSS chain 2: LTQSPGTLSLSPGETAIISCRTSQYGSLAWYQQRPGQAPRLVIYSGSTRAAGIPDRFSGSRWGPDYNLTISNLESGDFGVYYCQQYEFFGQGTKVQVD | 10

Please give the measured Kd for this binder: VRC07-523LS.v34 (antibody) chain 1: QVRLSQSGGQMKKPGDSMRISCSASGYEFINCPINWIRLAPGKRPEWMGWMKPRFGAVSYARQLQGRVTMTRQLSQDPDDPDWGTAFLELRSLTSDDTAVYFCTRGSYCTARDYYNWDFEHWGQGTPVTVSS chain 2: LTQSPGTLSLSPGETAIISCETSQYGSLAWYQQRPGQAPRLVIYSGSTRAAGIPDRFSGSRWGPDYNLTISNLESGDFGVYYCQQYEFFGQGTKVQVD
6.3

Please give the measured Kd for this binder: VRC07-523LS.v23 (antibody) chain 1: QVRLSQSGGQMKKPGDSMRISCRASGYEFINCPINWIRLAPGKRPEWMGWMKPRFGAVSYARQLQGRVTMTRQLSQDPDDPDWGTAFLELRSLTSDDTAVYFCTRGKYCTARDYYNWDFEHWGQGTPVTVSS chain 2: LTQSPGTLSLSPGETAIISCSTSQYGSLAWYQQRPGQAPRLVIYSGSTRAAGIPDRFSGSRWGPDYNLTISNLESGDFGVYYCQQYEFFGQGTKVQVD
3.8

Please give the measured Kd for this binder: VRC07-523LS.v37 (antibody) chain 1: QVRLSQSGGQMKKPGDSMRISCQASGYEFINCPINWIRLAPGKRPEWMGWMKPRFGAVSYARQLQGRVTMTRQLSQDPDDPDWGTAFLELRSLTSDDTAVYFCTRGQYCTARDYYNWDFEHWGQGTPVTVSS chain 2: LTQSPGTLSLSPGETAIISCETSQYGSLAWYQQRPGQAPRLVIYSGSTRAAGIPDRFSGSRWGPDYNLTISNLESGDFGVYYCQQYEFFGQGTKVQVD
9.6
